# SYSTEM NAME: human F508del-CFTR (Homo sapiens, UniProt P13569, DEL508-508)
# Sequence (P13569 with tags, fused parts or gaps DEL508-508): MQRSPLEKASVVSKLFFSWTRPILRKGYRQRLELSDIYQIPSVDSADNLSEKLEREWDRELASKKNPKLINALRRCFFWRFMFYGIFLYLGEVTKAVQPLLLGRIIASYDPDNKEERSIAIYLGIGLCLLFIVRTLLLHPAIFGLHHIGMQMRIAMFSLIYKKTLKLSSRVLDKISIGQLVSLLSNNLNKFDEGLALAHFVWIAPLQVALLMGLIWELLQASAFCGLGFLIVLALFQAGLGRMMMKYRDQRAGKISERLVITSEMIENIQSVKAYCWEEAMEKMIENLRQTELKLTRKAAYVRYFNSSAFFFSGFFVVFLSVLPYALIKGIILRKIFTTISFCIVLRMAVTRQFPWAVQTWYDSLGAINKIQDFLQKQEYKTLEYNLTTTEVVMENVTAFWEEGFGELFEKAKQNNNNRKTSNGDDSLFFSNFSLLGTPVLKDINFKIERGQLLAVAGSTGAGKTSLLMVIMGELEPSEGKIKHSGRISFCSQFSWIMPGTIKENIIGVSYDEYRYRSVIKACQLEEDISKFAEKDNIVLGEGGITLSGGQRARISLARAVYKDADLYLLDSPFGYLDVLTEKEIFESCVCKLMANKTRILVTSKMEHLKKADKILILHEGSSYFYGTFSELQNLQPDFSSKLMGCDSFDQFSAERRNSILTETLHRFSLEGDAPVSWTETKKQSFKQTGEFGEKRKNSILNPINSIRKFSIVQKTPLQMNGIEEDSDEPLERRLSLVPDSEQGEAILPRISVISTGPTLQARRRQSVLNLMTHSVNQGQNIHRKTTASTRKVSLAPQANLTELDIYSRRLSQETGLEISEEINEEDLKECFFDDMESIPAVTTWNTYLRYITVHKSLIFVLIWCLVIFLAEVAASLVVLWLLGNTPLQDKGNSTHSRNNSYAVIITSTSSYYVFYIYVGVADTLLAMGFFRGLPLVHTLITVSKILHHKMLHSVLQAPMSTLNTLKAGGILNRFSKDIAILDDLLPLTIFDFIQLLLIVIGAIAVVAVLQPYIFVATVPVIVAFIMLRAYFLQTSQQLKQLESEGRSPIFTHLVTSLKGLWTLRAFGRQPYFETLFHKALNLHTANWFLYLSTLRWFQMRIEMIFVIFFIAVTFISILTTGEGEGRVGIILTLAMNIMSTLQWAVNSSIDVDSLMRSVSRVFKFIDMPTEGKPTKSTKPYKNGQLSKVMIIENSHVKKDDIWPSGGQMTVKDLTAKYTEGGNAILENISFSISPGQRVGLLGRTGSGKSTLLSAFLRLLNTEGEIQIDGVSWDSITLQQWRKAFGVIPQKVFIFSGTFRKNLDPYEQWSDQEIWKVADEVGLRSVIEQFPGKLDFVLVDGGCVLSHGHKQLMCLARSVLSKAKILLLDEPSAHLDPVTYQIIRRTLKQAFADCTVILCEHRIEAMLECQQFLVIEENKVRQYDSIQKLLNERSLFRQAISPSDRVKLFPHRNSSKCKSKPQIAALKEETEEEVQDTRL
# ASSAY OVERVIEW: F508del-CFTR cell surface expression (corrector activity), DiscoveRx ß-galactosidase complementation chemiluminescence assay in recombinant U2OS cell line
# CONDITION SET: U2OS, in relation to Emax of corrector lumacaftor (=100%); arithmetic mean values
Classify by measured Emax: rule met if it is equal to or exceeds 300%, rule not met if it is smaller.

COc1cccc(CCNC(=O)[C@@H]2CC(=O)N(C)[C@@H](CC(C)C)C(=O)N3CCN(S(=O)(=O)C4CCOCC4)C[C@@H]3C(=O)N[C@H](Cc3ccccc3)COc3ccc4ccccc4c3C(=O)N2)c1
rule met
CCN1C(=O)C[C@@H](C(=O)NCCc2cc(C)no2)NC(=O)c2c(cnc3ccccc23)OC[C@@H](Cc2ccccc2)NC(=O)[C@H]2CCCCN2C(=O)[C@@H]1CC(C)C
rule not met
COc1cccc(CCNC(=O)[C@@H]2CC(=O)N(C)[C@@H](CC(C)C)C(=O)N3CCNC[C@@H]3C(=O)N[C@H](Cc3ccccc3)COc3ccc4ccccc4c3C(=O)N2)c1
rule not met
COc1cccc(CCNC(=O)[C@@H]2CC(=O)N(C)[C@@H](CC(C)C)C(=O)N(C)[C@H](COCc3ccccc3)C(=O)N[C@H](Cc3ccccc3)COc3ccc4ccccc4c3C(=O)N2)c1
rule met
COc1cc(CCNC(=O)[C@@H]2CC(=O)N(C)[C@@H](CC(C)C)C(=O)N(C)[C@H](CC(F)F)C(=O)N[C@H](Cc3ccccc3)COc3cc(C)nc(OC)c3C(=O)N2)on1
rule met

---

Catalogue of Emax values
# SYSTEM NAME: human F508del-CFTR (Homo sapiens, UniProt P13569, DEL508-508)
# ASSAY OVERVIEW: F508del-CFTR cell surface expression (corrector activity), DiscoveRx ß-galactosidase complementation chemiluminescence assay in recombinant U2OS cell line
# CONDITION SET: U2OS, in relation to Emax of corrector lumacaftor (=100%); arithmetic mean values
ENDPOINT NAME: Emax

Cc1nc2ccc3c(c2o1)C(=O)N[C@H](C(=O)NCCc1ccc(-n2nccn2)cc1)CC(=O)N(C)[C@@H](CC(C)C)C(=O)N1CCN(CC2CC2)C[C@@H]1C(=O)N[C@H](Cc1ccccc1)CO3
218%
COc1cccc(CCNC(=O)[C@@H]2CC(=O)N(C)[C@@H](CC(C)C)C(=O)N3CCN(c4ccccc4)C[C@@H]3C(=O)N[C@H](Cc3ccccc3)COc3ccnc(OC)c3C(=O)N2)c1
340%
CC(C)C[C@H]1C(=O)N2CCCC[C@@H]2C(=O)N[C@H](Cc2ccccc2)COc2cnc3ccccc3c2C(=O)N[C@H](C(=O)NCCc2cccc(-n3nccn3)c2)CC(=O)N1C
262%
COc1nccc2c1C(=O)N[C@H](C(=O)NCCc1c(F)cccc1F)CC(=O)N(C)[C@@H](CC(C)C)C(=O)N1CCCC[C@@H]1C(=O)N[C@H](Cc1ccccc1)CO2
337%
Cc1nc2ccc3c(c2o1)C(=O)N[C@H](C(=O)NCCc1c(F)cccc1F)CC(=O)N(C)[C@@H](CC(C)C)C(=O)N1CCCC[C@@H]1C(=O)N[C@H](Cc1ccccc1)CO3
247%
Cc1nc2ccc3c(c2o1)C(=O)N[C@H](C(=O)NCCc1cccc(OC(F)F)c1)CC(=O)N(C)[C@@H](CC(C)C)C(=O)N1CCN(CC2CC2)C[C@@H]1C(=O)N[C@H](Cc1ccccc1)CO3
217%
CC(C)C[C@H]1C(=O)N2CCCC[C@H]2C(=O)N[C@H](Cc2ccccc2)COc2cnc3c(F)cccc3c2C(=O)N[C@H](C(=O)NCCc2cc(C3CC3)no2)CC(=O)N1C
199%
COc1nccc2c1C(=O)N[C@H](C(=O)NCCc1cccc(-n3nccn3)c1)CC(=O)N(C)[C@@H](CC(C)C)C(=O)N1CCCC[C@H]1C(=O)N[C@H](Cc1ccccc1)CO2
152%
COCCN1C(=O)[C@H](CC(C)C)N(C)C(=O)C[C@@H](C(=O)NCCc2cccc(OC)c2)NC(=O)c2c(ccc3ccccc23)OC[C@@H](Cc2ccccc2)NC(=O)C12CC2
144%
CC(C)C[C@H]1C(=O)N2CCCC[C@@H]2C(=O)N[C@H](Cc2ccccc2)COc2ccc3ncccc3c2C(=O)N[C@H](C(=O)NCCc2nc(C3CC3)no2)CC(=O)N1C
330%

---

# SYSTEM NAME: human F508del-CFTR (Homo sapiens, UniProt P13569, DEL508-508)
# ASSAY OVERVIEW: F508del-CFTR cell surface expression (corrector activity), DiscoveRx ß-galactosidase complementation chemiluminescence assay in recombinant U2OS cell line;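 further: U2OS cells co-expressing ProLink-tagged F508del-CFTR and a membrane-anchored enzyme acceptor, where more surface CFTR restores β-galactosidase activity measured by chemiluminescence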
# CONDITION SET: U2OS, in relation to Emax of corrector lumacaftor (=100%); arithmetic mean values
Please note: true applies when Emax is 300% or greater, and false applies otherwise.

COc1cccc(CCNC(=O)[C@@H]2CC(=O)N(C)[C@@H](CC(C)C)C(=O)N(C)CC(=O)N[C@H](Cc3ccccc3)COc3ncc4ccccc4c3C(=O)N2)c1 [Example 530]
true
CC(C)C[C@H]1C(=O)N2CCCC[C@@H]2C(=O)N[C@H](Cc2ccccc2)COc2cnc3cccc(F)c3c2C(=O)N[C@H](C(=O)NCCc2cc(C3CC3)no2)CC(=O)N1C [Example 660]
true
CC(C)C[C@H]1C(=O)N2CCCC[C@H]2C(=O)N[C@H](Cc2ccccc2)COc2ccc3ncc(F)cc3c2C(=O)N[C@H](C(=O)NCCc2noc(C3CC3)n2)CC(=O)N1C [Example 793]
false
Cc1cc(CCNC(=O)[C@@H]2CC(=O)N(C)[C@@H](CC(C)C)C(=O)N(C)[C@H](C3CC3)C(=O)N[C@H](Cc3ccccc3)COc3ccc4ccccc4c3C(=O)N2)on1 [Example 508]
true
CC(C)C[C@H]1C(=O)N2CCCC[C@@H]2C(=O)N[C@H](Cc2ccccc2)COc2ccc3c(cnn3C)c2C(=O)N[C@H](C(=O)NCCc2c(F)cccc2F)CC(=O)N1C [Example 490]
false
CC(C)C[C@H]1C(=O)N2CCCC[C@H]2C(=O)N[C@H](Cc2ccccc2)COc2cnc3ccccc3c2C(=O)N[C@H](C(=O)NCCc2ccc(-n3nccn3)cc2)CC(=O)N1C [Example 464]
false
COc1nccc2c1C(=O)N[C@H](C(=O)NCCc1cccc(-n3nccn3)c1)CC(=O)N(C)[C@@H](CC(C)C)C(=O)N1CCCC[C@@H]1C(=O)N[C@H](Cc1ccccc1)CO2 [Example 466]
true
COc1cccc(CCNC(=O)[C@@H]2CC(=O)N(C)[C@@H](CC(C)C)C(=O)N(C)C3(CC3)C(=O)N[C@H](Cc3ccccc3)COc3ccc4cccnc4c3C(=O)N2)c1 [Example 471]
false
COc1cccc(CCNC(=O)[C@@H]2CC(=O)N(C)[C@@H](CC(C)C)C(=O)N(C)C3(CC3)C(=O)N[C@H](Cc3ccccc3)COc3ccnc(OC)c3C(=O)N2)c1 [Example 438]
true
COc1cc2c(cn1)OC[C@@H](Cc1ccccc1)NC(=O)[C@H]1CCCCN1C(=O)[C@H](CC(C)C)N(C)C(=O)C[C@@H](C(=O)NCCc1nc(C3CC3)no1)NC2=O [Example 529]
false
COc1cc(CCNC(=O)[C@@H]2CC(=O)N(C)[C@@H](CC(C)C)C(=O)N3CCN(CC(C)C)C[C@@H]3C(=O)N[C@H](Cc3ccccc3)COc3ccc4ccccc4c3C(=O)N2)cc(OC)c1 [Example 613]
true
Cc1cc(CCNC(=O)[C@@H]2CC(=O)N(C)[C@@H](CC(C)C)C(=O)N(C)C3(CC3)C(=O)N[C@H](Cc3ccccc3)COc3cnc4ccccc4c3C(=O)N2)on1 [Example 434]
true
Cc1cc(CCNC(=O)[C@@H]2CC(=O)N(C)[C@@H](CC(C)C)C(=O)N(C)[C@H](C3CCCC3)C(=O)N[C@H](Cc3ccccc3)COc3cnc4ccccc4c3C(=O)N2)on1 [Example 710]
false
CC(C)C[C@H]1C(=O)N(C)C2(CC2)C(=O)N[C@H](Cc2ccccc2)COc2ccc3ncc(F)cc3c2C(=O)N[C@H](C(=O)NCCc2noc(C3CC3)n2)CC(=O)N1C [Example 546]
true
CC(C)C[C@H]1C(=O)N2CCCC[C@H]2C(=O)N[C@H](Cc2ccccc2)COc2ccc3ncccc3c2C(=O)N[C@H](C(=O)NCCc2ccc(-n3nccn3)cc2)CC(=O)N1C [Example 473]
false
CC(C)C[C@H]1C(=O)N2CCN(C3CC3)C[C@H]2C(=O)N[C@H](Cc2ccccc2)COc2cnc3ccccc3c2C(=O)N[C@H](C(=O)NCCc2cccc(OC(F)F)c2)CC(=O)N1C [Example 399]
false
CC(C)C[C@H]1C(=O)N2CCCC[C@@H]2C(=O)N[C@H](Cc2ccccc2)COc2ccc3ncn(C)c3c2C(=O)N[C@H](C(=O)NCCc2c(F)cccc2F)CC(=O)N1C [Example 485]
false
COc1cccc(CCNC(=O)[C@@H]2CC(=O)N(C)[C@@H](CC(C)C)C(=O)N3CCCC[C@@H]3C(=O)N[C@H](Cc3ccccc3)COc3cnc4cccc(F)c4c3C(=O)N2)c1 [Example 535]
true

Cited source: patent US20240208992A1
